Target: Recombinant human HSD17B13 enzyme (Homo sapiens)
Sequence (Q7Z5P4 20-300): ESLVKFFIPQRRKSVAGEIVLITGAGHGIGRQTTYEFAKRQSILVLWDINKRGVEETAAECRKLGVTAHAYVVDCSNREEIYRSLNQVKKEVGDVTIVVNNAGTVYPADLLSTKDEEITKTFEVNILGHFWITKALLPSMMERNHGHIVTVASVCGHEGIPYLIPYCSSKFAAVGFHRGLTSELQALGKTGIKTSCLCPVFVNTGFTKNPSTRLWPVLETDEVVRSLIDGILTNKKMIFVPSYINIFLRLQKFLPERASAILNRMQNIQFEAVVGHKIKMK
Experiment: HSD17b13 NAD(P)H-Glo biochemical assay
Details: 50 uM estradiol, 1 mM NAD+, NAD(P)H-Glo luminescence; read-out: HSD17β13 IC50
Procedure: Example B-1: HSD17b13 NAD(P)H-Glo Biochemical Assay Recombinant human HSD17B13 enzyme. Substrate: estradiol (Sigma β-Estradiol E8875), 100 mM in DMSO. Cofactor: NAD+ Grade I free acid (Sigma 10127965001), 20 mM in H2O. […] Enzymatic activity detected by NAD(P)H-Glo™ Detection System (Promega G9062). […] HSD17b13 enzyme was diluted in 1× assay buffer to the desired enzyme concentration based on the specific activity of the enzyme lot. […] After incubating for 1 hour at RT, luminescence was measured.
pIC50: −log10 of the molar value.

# COMPOUND, ASSAY TARGET, pIC50
rows = [
    ("CS(=O)(=O)N1CC2(CCN(c3ccc(-n4ncc5cc(F)c(O)c(F)c54)cc3)CC2)C1", "Recombinant human HSD17B13 enzyme (Homo sapiens)", "6.00 to 7.00"),
    ("Oc1c(F)cc2nnn(-c3ccc(N4CC5(CCOCC5)C4)cc3)c2c1F", "Recombinant human HSD17B13 enzyme (Homo sapiens)", "> 7.00"),
    ("CC1(C)CCN(c2ccc(-n3c(=O)oc4cc(F)c(O)c(F)c43)cc2)CC1", "Recombinant human HSD17B13 enzyme (Homo sapiens)", "> 7.00"),
    ("CS(=O)(=O)N1CCN(c2ccc(-n3nc(F)c4cc(F)c(O)c(F)c43)cc2)CC1", "Recombinant human HSD17B13 enzyme (Homo sapiens)", "6.00 to 7.00"),
    ("CC1(C)CN(c2ccc(-n3ncc4cc(F)c(O)c(F)c43)cc2)CC(C)(C)O1", "Recombinant human HSD17B13 enzyme (Homo sapiens)", "> 7.00"),
    ("Cc1cc(-c2ccc(O)cc2)ccc1-n1ncc2cc(F)c(O)cc21", "Recombinant human HSD17B13 enzyme (Homo sapiens)", "6.00 to 7.00"),
    ("NS(=O)(=O)c1ccc(-c2ccc(-n3ncc4cc(F)c(O)cc43)cc2)cc1", "Recombinant human HSD17B13 enzyme (Homo sapiens)", "> 7.00"),
    ("Oc1ccc(-c2ccc(-n3ncc4cc(F)c(O)cc43)nc2)cc1", "Recombinant human HSD17B13 enzyme (Homo sapiens)", "6.00 to 7.00"),
    ("Oc1cccc(-c2ccc(-n3ncc4cc(F)c(O)c(F)c43)cc2)c1", "Recombinant human HSD17B13 enzyme (Homo sapiens)", "> 7.00"),
    ("Oc1ccc(-c2ccc(-n3ncc4ccc(O)cc43)cc2)cc1", "Recombinant human HSD17B13 enzyme (Homo sapiens)", "6.00 to 7.00"),
    ("Oc1cccc(-c2ccc(-n3nc(F)c4cc(F)c(O)cc43)cc2)c1", "Recombinant human HSD17B13 enzyme (Homo sapiens)", "6.00 to 7.00"),
    ("CS(=O)(=O)N1CCC(c2ccc(-n3nnc4cc(F)c(O)c(F)c43)cc2)CC1", "Recombinant human HSD17B13 enzyme (Homo sapiens)", "> 7.00"),
    ("CS(=O)(=O)N1CCN(c2ccc(-n3ncc4cc(F)c(O)c(F)c43)c(Cl)c2)CC1", "Recombinant human HSD17B13 enzyme (Homo sapiens)", "> 7.00"),
    ("CC1(C)CN(S(C)(=O)=O)CCN1c1ccc(-n2ncc3cc(F)c(O)c(F)c32)cc1", "Recombinant human HSD17B13 enzyme (Homo sapiens)", "6.00 to 7.00"),
    ("N#Cc1cccc(-c2ccc(-n3ncc4cc(F)c(O)cc43)cc2)c1", "Recombinant human HSD17B13 enzyme (Homo sapiens)", "6.00 to 7.00"),
    ("CS(=O)(=O)N1CCCC(c2ccc(-n3ncc4cc(F)c(O)c(F)c43)cc2)C1 (centres unmarked)", "Recombinant human HSD17B13 enzyme (Homo sapiens)", "> 7.00"),
    ("Oc1cccc(-c2ccc(-n3ncc4cc(F)c(O)cc43)cc2)c1", "Recombinant human HSD17B13 enzyme (Homo sapiens)", "6.00 to 7.00"),
]
